# targetSystem: T1, recombinant human Siglec-8 extracellular domain (ECD) (human, UniProt Q9NYZ4 17-363)
# T1 construct: extracellular domain; also called Siglec-8 ECD; full Siglec-8 ECD
# T1 sequence (Q9NYZ4 17-363): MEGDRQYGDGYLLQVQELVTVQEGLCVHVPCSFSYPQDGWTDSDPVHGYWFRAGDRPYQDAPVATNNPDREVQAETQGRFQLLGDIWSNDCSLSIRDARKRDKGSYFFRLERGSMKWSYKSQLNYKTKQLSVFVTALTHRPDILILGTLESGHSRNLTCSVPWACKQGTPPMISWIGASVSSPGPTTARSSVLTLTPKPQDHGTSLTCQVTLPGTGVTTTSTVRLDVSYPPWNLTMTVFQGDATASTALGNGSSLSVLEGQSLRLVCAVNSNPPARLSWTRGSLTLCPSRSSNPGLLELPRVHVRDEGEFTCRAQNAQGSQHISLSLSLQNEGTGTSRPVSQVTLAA
# testSummary: ELISA, coated Siglec-8 ECD
Exercise: for every item that follows, state its recorded EC50.
Numbers only; they are read as pM.

Indicate the recorded EC50 value for this binder: RHE Y-VKA (antibody, human IgG1, V domains shown, human IgG1/kappa) VH: EVQLVESGGGLVQPGGSLRLSCAASGFSLTIYGAHWVRQAPGKGLEWVGVIWAGGSTNYNSALMSRFTISKDNSKNTVYLQMNSLRAEDTAVYYCARDGSSPYYYSMEVWGQGTTVTVSS VL: EIVLTQSPATLSLSPGERATLSCSATSSVSYMHWFQQKPGQAPRLLIYSTSNLASGIPARFSGSGSGTDFTLTISSLEPEDFAVYYCQQRSSYPFTFGPGTKLDIK 88

Tell us which EC50 value is on record for HA2KB (antibody, human IgG1, V domains shown, human IgG1/kappa) VH: QVQLQESGPGLVKPSETLSLTCTVSGGSISIYGAHWIRQPPGKGLEWIGVIWAGGSTNYNSALMSRVTISVDTSKNQFSLKLSSVTAADTAVYYCARDGSSPYYYSMEYWGQGTLVTVSS VL: EIILTQSPATLSLSPGERATLSCSATSSVSYMHWFQQKPGQAPRLWIYSTSNLASGVPARFSGSGSGTDYTLTISSLEPEDFAVYYCQQRSSYPFTFGPGTKLDIK 124000

Assign EC50 to the following record: HFKFmut (antibody, human IgG1, V domains shown, human IgG1/kappa) VH: EVQLVESGGGLVQPGGSLRLSCAASGFSLTIYGAHWVRQAPGKGLEWVSVIWAGGSTNYNSALMSRLTISKDNSKNTVYLQMNSLRAEDTAVYYCARDGSSPYYYSMEYWGQGTTVTVSS VL: EIVLTQSPATLSLSPGERATLSCSATSSVSYMHWFQQKPGQAPRLLIYSTSNLASGIPARFSGSGSGTDYTLTISSLEPEDFAVYYCQQRSSYPYTFGPGTKLDIK 57
